Experiment: Pharmacokinetic analysis of SYN120 tablets, single oral dose (Example 8)
Assay type: in vivo, human
Conditions: human, plasma; single oral dose 600 mg, Cohort G; median; read-out: Tmax
Protocol: Pharmacokinetic (PK) analysis was performed on 42 subjects (36 males; 6 females) who received SYN120 oral tablets. In this study, subjects received a single oral dose of SYN120 at one of the following doses: 2 mg; 10 mg; 30 mg; 100 mg; 300 mg; and 600 mg. The SYN120 oral tablets used in this study were formulated for immediate release at tablet strengths of 2 mg, 10 mg, and 50 mg. […]
value kind: Tmax

Inquiry: State the recorded Tmax for this entry: NC(=O)NC[C@@H]1CCCc2cc(S(=O)(=O)c3cccc(F)c3)ccc21 [SYN120]
Reply text: 4.51 h

---

Assay: Pharmacokinetic analysis of SYN120 tablets, multiple dose once daily (Example 9)
Format: in vivo, human
Settings: both sexes, human, plasma, oral, 300 mg, Day 14, 300 mg QD; median; read-out: Tmax
Method: PK analysis in a multiple dose study was performed on 28 subjects (10 males and 18 females) on day 1 and on 27 subjects (10 males and 17 females) on day 14 who received SYN120 oral tablets. The dosing interval was once daily, approximately 40 minutes after a standard breakfast, for up to 21 days. The subjects were administered the same dose of SYN120 daily at one of the following doses: 100 mg; 300 mg; and 600 mg. […]
value kind: Tmax (h)
Answers are plain numbers, in h.

Inquiry: State the recorded Tmax for this entry: NC(=O)NC[C@@H]1CCCc2cc(S(=O)(=O)c3cccc(F)c3)ccc21 [SYN120]
Reply text: 3

---

test: Pharmacokinetic analysis of SYN120 tablets, multiple dose once daily (Example 9); type: in vivo, human; settings: both sexes, human, plasma, oral, 100 mg, Day 1, 100 mg QD; median; read-out: Tmax
value kind: Tmax (h)
Numbers only, in h.

Inquiry: State the recorded Tmax for this entry: NC(=O)NC[C@@H]1CCCc2cc(S(=O)(=O)c3cccc(F)c3)ccc21 [SYN120]
Reply text: 4

---

test: Pharmacokinetic analysis of SYN120 tablets, multiple dose once daily (Example 9); assay type: in vivo, human; conditions: both sexes, human, plasma, oral, 100 mg, Day 14, 100 mg QD; geometric mean; read-out: Css
value kind: concentration at 14 day

Inquiry: State the recorded concentration at 14 day for this entry: NC(=O)NC[C@@H]1CCCc2cc(S(=O)(=O)c3cccc(F)c3)ccc21 [SYN120]
Reply text: 591 ng/mL

---

Experiment: Pharmacokinetic analysis of SYN120 tablets, single oral dose (Example 8)
Format: in vivo, human
Details: human, plasma; single oral dose 300 mg, Cohort F; median; read-out: Tmax
Protocol: Pharmacokinetic (PK) analysis was performed on 42 subjects (36 males; 6 females) who received SYN120 oral tablets. In this study, subjects received a single oral dose of SYN120 at one of the following doses: 2 mg; 10 mg; 30 mg; 100 mg; 300 mg; and 600 mg. The SYN120 oral tablets used in this study were formulated for immediate release at tablet strengths of 2 mg, 10 mg, and 50 mg. […]
value kind: Tmax (h)
One number for each entry, in h.

Inquiry: State the recorded Tmax for this entry: NC(=O)NC[C@@H]1CCCc2cc(S(=O)(=O)c3cccc(F)c3)ccc21 [SYN120]
Reply text: 3.53

---

test: Pharmacokinetic analysis of SYN120 tablets, multiple dose once daily (Example 9); type: in vivo, human; settings: Day 14, 600 mg QD; median
value kind: Tlast (h)
Answers are plain numbers, in h.

Inquiry: State the recorded Tlast for this entry: NC(=O)NC[C@@H]1CCCc2cc(S(=O)(=O)c3cccc(F)c3)ccc21 [SYN120]
Reply text: 168
